The compounds listed here are annotated with their GI50.
Test system: LOX IMVI melanoma
measurement-description: NCI tumour cell line growth inhibition, 48 h

- compound-structure: "Clc1ccc(-c2ccc(OCCCN3CCN(c4ccncc4)CC3)cc2)cc1"
  experimental-target: "LOX IMVI melanoma"
  GI50: "1860 nM"
- compound-structure: "Cn1cc(-c2cc(N)n3nc(-c4c[nH]c5ccccc45)cc3n2)c2ccccc21"
  experimental-target: "LOX IMVI melanoma"
  GI50: "1810 nM"
- compound-structure: "COc1ccc(C(SCCNCc2cc(N(C)C)ccn2)(c2ccccc2)c2ccccc2)cc1"
  experimental-target: "LOX IMVI melanoma"
  GI50: "2040 nM"

**Q:** State, in one line, measured GI50 of "Cn1cc(-c2cc3nc(-c4c[nH]c5ccccc45)cc(N)n3n2)c2cc(Cl)ccc21"
**A:** 1710 nM
